method_description: physchem
reported_conditions: octanol/water, pH 6.5
Please use the following logD ranges when assigning a class: low end (below -0.4), middle (-0.4 to below 1), high end (1 or more)

Problem: For this compound, which bin applies? NS(=O)(=O)c1cc2c(cc1Cl)N=CNS2(=O)=O [CHLOROTHIAZIDE]
Solution: low end

Problem: For this compound, which bin applies? COc1ccc(C(=O)Nc2ccccc2CCC2CCCCN2C)cc1 (stereo not drawn) [ENCAINIDE]
Solution: middle

Problem: For this compound, which bin applies? CCC1(CCC(C)C)C(=O)NC(=O)NC1=O [AMOBARBITAL]
Solution: high end

Problem: For this compound, which bin applies? NS(=O)(=O)c1cc(C2(O)NC(=O)c3ccccc32)ccc1Cl (stereo not drawn) [CHLORTHALIDONE]
Solution: middle

Problem: For this compound, which bin applies? CC(C)(C)NCC(O)COc1cccc2c1CCC(=O)N2 (stereo not drawn) [CARTEOLOL]
Solution: low end

Problem: For this compound, which bin applies? CC1CCCC(C)N1CCCC(O)(c1ccccc1)c1ccccn1 (stereo not drawn) [PIRMENOL]
Solution: low end

Problem: For this compound, which bin applies? OCCN1CCN(CC/C=C2/c3ccccc3Sc3ccc(Cl)cc32)CC1 [ZUCLOPENTHIXOL]
Solution: high end

Problem: For this compound, which bin applies? CN1C(=O)CC(=O)N(c2ccccc2)c2cc(Cl)ccc21 [CLOBAZAM]
Solution: middle

Problem: For this compound, which bin applies? CN(CCCN1c2ccccc2CCc2ccccc21)CC(=O)c1ccc(Cl)cc1 [LOFEPRAMINE]
Solution: high end

Problem: For this compound, which bin applies? CCOC(=O)C1(c2ccccc2)CCN(C)CC1 [MEPERIDINE]
Solution: middle

Problem: For this compound, which bin applies? COc1ccc(C(CN(C)C)C2(O)CCCCC2)cc1 (stereo not drawn) [VENLAFAXINE]
Solution: low end

Problem: For this compound, which bin applies? Cc1onc(-c2ccccc2)c1C(=O)N[C@@H]1C(=O)N2[C@@H]1SC(C)(C)[C@@H]2C(=O)O [OXACILLIN]
Solution: low end

Problem: For this compound, which bin applies? CC(C)n1c(/C=C/C(O)CC(O)CC(=O)O)c(-c2ccc(F)cc2)c2ccccc21 (stereo not drawn) [FLUVASTATIN]
Solution: high end

Problem: For this compound, which bin applies? O=C(O)CCc1nc(-c2ccccc2)c(-c2ccccc2)o1 [OXAPROZIN]
Solution: high end

Problem: For this compound, which bin applies? O=[N+]([O-])C1O[C@H]2[C@H](OC[C@H]2O)[C@H]1O (stereo partly drawn)
Solution: middle

Problem: For this compound, which bin applies? Cc1ncc2n1-c1ccc(Cl)cc1C(c1ccccc1F)=NC2 [MIDAZOLAM]
Solution: high end

Problem: For this compound, which bin applies? CC[C@H](C)C(=O)O[C@H]1C[C@@H](C)C=C2C=C[C@H](C)[C@H](CC[C@@H]3C[C@@H](O)CC(=O)O3)[C@H]21 [LOVASTATIN]
Solution: high end

Problem: For this compound, which bin applies? CC(C)(C)NCC(O)c1ccc(O)c(CO)c1 (stereo not drawn) [ALBUTEROL]
Solution: low end

Problem: For this compound, which bin applies? CC(C)N(CCC(C(N)=O)(c1ccccc1)c1ccccn1)C(C)C (stereo not drawn) [DISOPYRAMIDE]
Solution: low end

Problem: For this compound, which bin applies? CN1C(=O)NC(=O)C(C)(C2=CCCCC2)C1=O (stereo not drawn) [HEXOBARBITAL]
Solution: high end

Problem: For this compound, which bin applies? CCCN(CCC)S(=O)(=O)c1ccc(C(=O)O)cc1 [PROBENECID]
Solution: middle

Problem: For this compound, which bin applies? Nc1cc(-c2ccncc2)c[nH]c1=O [INAMRINONE]
Solution: low end

Problem: For this compound, which bin applies? COc1cccc(C2(O)CCCCC2CN(C)C)c1 (stereo not drawn) [TRAMADOL]
Solution: middle

Problem: For this compound, which bin applies? CC[C@H]1[C@@H]2C[C@H]3[C@@H]4N(C)c5ccccc5[C@]45C[C@@H]([C@@H]2[C@H]5O)N3[C@@H]1O [AJMALINE]
Solution: high end

Problem: For this compound, which bin applies? CCC(=O)O[C@](Cc1ccccc1)(c1ccccc1)[C@H](C)CN(C)C [PROPOXYPHENE]
Solution: high end

Problem: For this compound, which bin applies? Cc1ccnc2c1NC(=O)c1cccnc1N2C1CC1 [NEVIRAPINE]
Solution: high end

Problem: For this compound, which bin applies? OCCN1CCN(CCC=C2c3ccccc3Sc3ccc(C(F)(F)F)cc32)CC1
Solution: high end

Problem: For this compound, which bin applies? CC(=O)Nc1ccc(O)cc1 [ACETAMINOPHEN]
Solution: middle

Problem: For this compound, which bin applies? COc1ccccc1N1CCN(CCCNc2cc(=O)n(C)c(=O)n2C)CC1
Solution: middle

Problem: For this compound, which bin applies? CN/C(=N/CCSCc1nc[nH]c1C)NC#N [CIMETIDINE]
Solution: middle

Problem: For this compound, which bin applies? Sc1ncnc2nc[nH]c12 [MERCAPTOPURINE ANHYDROUS]
Solution: low end

Problem: For this compound, which bin applies? CCCCNc1cc(C(=O)O)cc(S(N)(=O)=O)c1Oc1ccccc1 [BUMETANIDE]
Solution: low end
